Parameter: protein stability index. Scope: all listed entries.
B1: STK38L (parent)
chain: NWKETLVFPPEVPISEKAKDLILR

variants of: B1; assay: protein stability index of a GFP-peptide fusion (GPS, HEK-293T) (PSI 1-6); higher = more stable; details: c terminus: a fixed tail appended;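 further: lentivirally expressed fusions sorted by FACS into six bins by GFP to DsRed ratio, PSI derived from sequencing read proportions per bin multiplied by bin number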
# respond with the number and nothing more

Worked cases, protein stability index given:
MUTATION_ANNOTATION | protein stability index
I14Y | 2.1
L21N | 3.56
N1I | 2.18
P10D | 3.43
L23E | 4.15
P10S | 2.6
I22W | 3.42

Continue with the next variant.
Reported protein stability index for `L23I` : what is it?
3.24
